In this section we review reported FACS Geomean values for a set of binders.
Target: T1, Soluble ASGR-1 (human, UniProt P07306 62-291, biotinylated)
T1 construct: Soluble recombinant protein; also called recombinant, soluble ASGR-1 biotinylated protein
T1 sequence: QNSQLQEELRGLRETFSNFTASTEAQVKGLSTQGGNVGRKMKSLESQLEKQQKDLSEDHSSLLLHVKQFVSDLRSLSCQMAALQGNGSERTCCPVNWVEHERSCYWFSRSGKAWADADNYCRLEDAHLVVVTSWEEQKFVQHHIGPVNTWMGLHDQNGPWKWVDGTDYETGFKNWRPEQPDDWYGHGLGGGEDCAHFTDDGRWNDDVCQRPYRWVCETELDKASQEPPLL
Assay: limited antigen binding assay; biotinylated soluble ASGR-1 coated at 2.5 ng/mL on LumAvidin beads, FACS
Entry rule: numbers only, all in FACS Geomean.

BINDER	FACS Geomean, FACS Geomean
184E7 (antibody, V domains shown, Tested as hybridoma supernatant at normalized concentration) VH: QVQLVQSGAEVKTPGASVKVSCRASGYTFTSYNMHWVRQVPGQGLEWMGWINPNNGGSNYTQKFQGRVTMTRDTSISTAYMELSRLRSDDTAVYYCARKFGDWGQGTLVTVSS VL: DIQMTQSPSSRSASIGERVTITCRASQGISNYLAWIQQKPGTAPKSLIYAASSLQSGVSSRFSGSGFGTDFTITISSVQREDFATYYCQQYNGYPFTFGHGTKVDIK	40200

Now, please, on to the next binder.
Prompt: Tell me its FACS Geomean given 5E5 (antibody, V domains shown, Tested as hybridoma supernatant at normalized concentration) VH: QVQLVESGGGVVQPGRSLRLSCAASGFTFSNYVMHWVRQAPGKGLEWVAVIWYDGSNKYYADSVKGRFTISRDNSKNTLYLQMNSLRAEDTAVYYCTREVYSSGWYDYGMDVWGQGTTVTVSS VL: DIQMTQSPSSLSASVGDRVTITCRASQGIRNDLGWYQQKPGKAPKRLIYAASSLQSGVPSRFSGSGSGTEFTLTISSLQPEDFATYYCLQHYSYPRTFGQGTKVEVK as the entry.
Response: 3280
